Test system: healthy volunteers (bent side of the forearm)
method: 24 hour-occlusion patch test (Finn Chamber) of the original specimen
Format: in vivo, human
condition-set: evaluation time 24 hrs; 46 persons; 0.03 ml original specimen
assay-readout: Positive ++ (Moderately positive: erythema + edema), number of subjects

Below are worked cases with known answers.
{"compound": "CC(COC(=O)C(C)(C)C)OCC(C)OC(=O)C(C)(C)C (stereo not shown) [Example 2, Dipropyleneglycol dineopentanoate]", "measurement": 0}
{"compound": "CC(COC(=O)C(C)(C)C)OCC(C)OCC(C)OC(=O)C(C)(C)C (stereo not shown) [Example 1, Tripropyleneglycol dineopentanoate]", "measurement": 0}

(1) CC(COC(=O)C(C)(C)C)OCC(C)OCC(C)OCC(C)OC(=O)C(C)(C)C (stereo not shown) [Example 3, Tetrapropyleneglycol dineopentanoate]
(2) CCCCCCCCC(=O)OCCCCCCC(C)C [compound 3, Isononyl nonanoate, reference compound]
Q. Lab note: check whether 1 or 2 shows the higher recorded Positive ++ (Moderately positive: erythema + edema), number of subjects. Write down the label attached to your selection.
A. 2
(2: 4, 1: 0)
